# tgt: T1, Human FOLR1 Protein His Tag (ACRO-FO1-H52H1) (human, UniProt P15328 25-233)
# T1 construct: not shown: His tag
# assay_overview: ELISA, HEK293 supernatant on coated antigen
measured_parameter: OD450
One number for each entry.

Guide cases for OD450, answers given:
{"binder": "F48 (antibody, V domains shown, also called clone F48; anti-FOLR1 antibody F48) VH: EVQLLESGGGVVQPGRSLRLSCAASGFTFSSYGMHWVRQAPGKGLEWVAVISYDGSNKYYADSVKGRFTISRDNSKNTLYLHMNSLRAEDTAVYYCARPRAYYGAYGSSFDYWGQGTQVTVSS VL: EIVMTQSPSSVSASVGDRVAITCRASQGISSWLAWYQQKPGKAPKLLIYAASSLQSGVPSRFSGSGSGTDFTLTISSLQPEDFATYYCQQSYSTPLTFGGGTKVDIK", "measured_parameter": "OD450", "recorded_number": 2.54}
{"binder": "F112 (antibody, V domains shown, also called clone F112; anti-FOLR1 antibody F112) VH: EVQLLESGGGVVQPGRSLRLSCAASGFTFSSYGMHWVRQAPGKGLEWVAVISYDGSNKYYADSVKGRFTISRHNSKNTLYLQMNSLRAEDTAVYYCARPRAYYGAYGSSFDYWGQGTQVTVSS VL: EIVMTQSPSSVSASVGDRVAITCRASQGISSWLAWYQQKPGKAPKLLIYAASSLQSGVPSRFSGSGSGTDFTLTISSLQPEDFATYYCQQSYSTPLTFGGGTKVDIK", "measured_parameter": "OD450", "recorded_number": 2.35}

Below is a list of binders. For each, state its recorded OD450.
1. F26 (antibody, V domains shown, also called clone F26; anti-FOLR1 antibody F26) VH: EVQLLESGGGVVQRGRSLRLSCAASGFTFSSYGMHWVRQAPGKGLEWVAVISYDGSNKYYADSVKGRFTISRDNSKNTLYLPMNSLRAEDTAVYYCARPRAYYGAYGSSFDYWGQGTQVTVSS VL: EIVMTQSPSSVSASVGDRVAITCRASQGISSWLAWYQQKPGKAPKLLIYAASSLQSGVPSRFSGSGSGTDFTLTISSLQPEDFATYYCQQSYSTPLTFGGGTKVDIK
2. F40 (antibody, V domains shown, also called clone F40; anti-FOLR1 antibody F40) VH: EVQLLESGGGVVQPGRSLRLSCAASGFTFSSYAMHWVRQAPGKGLEWVAVISYDGSNKYYADSVKGRFIISRDNSKNTVYLQMNSLRAEDTAVYYCARPTYVFTYTGSSFDYWGQGTQVTVSS VL: DIQVTQSPSSLSASLGDTVSITCRASRGLTDSVAWYQQKPGQAPKLLIYAASTLQSGVPSRFGGSGSGSYFTLTITSLQPEDVATYYCQNYKSAPWTFGQGTKVEIK
3. F131 (antibody, V domains shown, also called clone F131; F131 mAb) VH: EVQLLESGGGVVQPGRSLRLSCAASGFTFSSYGMHWVRQAPGKGLEWVAVISYDGSNKYYADSVKGRFTISRANSKNTLYLQMNSLRAEDTAVYYCARPRAYYGAYGSSFDYWGQGTQVTVSS VL: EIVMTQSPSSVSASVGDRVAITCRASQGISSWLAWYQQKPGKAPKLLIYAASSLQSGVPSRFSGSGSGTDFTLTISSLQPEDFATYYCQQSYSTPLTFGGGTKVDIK
4. F100 (antibody, V domains shown, also called clone F100; anti-FOLR1 antibody F100) VH: EVQLLESGGGVVQPGRSLRLSCAASGFTFSSYGMHWVRQAPGKGLEWVAVISYDGSNKYYADSVKGRFTISRPNSKNTLYLQMNSLRAEDTAVYYCARPRAYYGAYGSSFDYWGQGTQVTVSS VL: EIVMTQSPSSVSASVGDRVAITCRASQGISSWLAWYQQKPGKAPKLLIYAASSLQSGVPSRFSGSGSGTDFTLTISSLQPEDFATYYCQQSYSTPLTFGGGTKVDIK

1. 2.43
2. 2.39
3. 2.35
4. 2.3

List OD450 for every entry below, keeping the order given.
1. F123 (antibody, V domains shown, also called clone F123; anti-FOLR1 antibody F123) VH: EVQLLESGGGVVQPERSLRLSCAASGFTFSSYGMHWVRQAPGKGLEWVAVISYDGSNKYYADSVKGRFTISRANSKNTLYLQMNSLRAEDTAVYYCARPRAYYGAYGSSFDYWGQGTQVTVSS VL: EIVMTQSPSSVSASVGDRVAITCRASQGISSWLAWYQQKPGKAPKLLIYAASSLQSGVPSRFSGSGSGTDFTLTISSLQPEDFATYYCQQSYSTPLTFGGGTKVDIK
2. F8 (antibody, V domains shown, also called clone F8; anti-FOLR1 antibody F8) VH: EVQLLESGGGVVQHGRSLRLSCAASGFTFSSYGMHWVRQAPGKGLEWVAVISYDGSNKYYADSVKGRFTISRDNSKNTLYLQMNSLRAEDTAVYYCARPRAYYGAYGSSFDYWGQGTQVTVSS VL: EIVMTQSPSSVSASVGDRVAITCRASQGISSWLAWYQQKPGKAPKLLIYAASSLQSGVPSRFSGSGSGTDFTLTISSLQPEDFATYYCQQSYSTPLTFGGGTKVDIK
3. F138 (antibody, V domains shown, also called clone F138; anti-FOLR1 antibody F138) VH: EVQLLESGGGVVQPGRSLRLSCAASGFTFSSYGMHWVRQAPGKGLEWVAVISYDGSNKYYADSVKGRFTISTHNSKNTLYLQMNSLRAEDTAVYYCARPRAYYGAYGSSFDYWGQGTQVTVSS VL: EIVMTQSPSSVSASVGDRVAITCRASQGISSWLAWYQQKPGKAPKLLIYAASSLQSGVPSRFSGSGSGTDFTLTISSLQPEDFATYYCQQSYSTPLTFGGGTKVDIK
4. F1 (antibody, V domains shown, also called clone F1; anti-FOLR1 antibody F1) VH: EVQLLESGGGVVQPGRSLRLSCAASGFTFSSYGMHWVRQAPGKGLEWVAVISYDGSNKYYADSVKGRFTISRDNSKNTLYLQMNSLRAEDTAVYYCARPRAYYGAYGSSFDYWGQGTQVTVSS VL: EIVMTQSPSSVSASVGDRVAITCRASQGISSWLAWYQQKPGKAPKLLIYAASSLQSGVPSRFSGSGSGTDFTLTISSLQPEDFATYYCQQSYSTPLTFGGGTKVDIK

1. 2.32
2. 2.45
3. 2.41
4. 2.43
